# tested target: ZmDRIK1-K217-S514 (Zea mays, UniProt C0P4K9)
# Construct: kinase domain, K217-S514
# Sequence (C0P4K9 1-514): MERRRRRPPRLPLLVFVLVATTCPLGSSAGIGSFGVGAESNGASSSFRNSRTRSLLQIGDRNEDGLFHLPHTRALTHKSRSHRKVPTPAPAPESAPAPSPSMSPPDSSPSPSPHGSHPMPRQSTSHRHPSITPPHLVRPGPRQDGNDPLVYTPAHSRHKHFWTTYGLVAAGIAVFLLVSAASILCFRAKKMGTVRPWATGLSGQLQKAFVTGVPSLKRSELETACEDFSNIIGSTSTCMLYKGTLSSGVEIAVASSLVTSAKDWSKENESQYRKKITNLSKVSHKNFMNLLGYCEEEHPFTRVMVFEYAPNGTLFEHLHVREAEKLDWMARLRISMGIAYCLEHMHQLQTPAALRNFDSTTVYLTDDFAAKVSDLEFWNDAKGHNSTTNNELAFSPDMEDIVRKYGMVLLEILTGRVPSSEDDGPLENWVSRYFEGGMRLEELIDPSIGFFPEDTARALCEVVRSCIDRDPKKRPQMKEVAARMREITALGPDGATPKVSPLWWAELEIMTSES
# experimental protocol: biochemical
# condition set: read-out: dTm B, sheet ZmDRIK1-K217-S514;; DSF, Boltzmann fit, 0.1% DMSO
measured quantity: ΔTm at 10 µM (°C)
A number alone suffices; assume °C.

Take a look at these entries with their results.
molecule	ΔTm at 10 µM [°C]
CN1CCC(CNc2ccc3ncc(-c4cccc(OC(F)(F)F)c4)n3n2)CC1 [SGI-1776 free base]	-0.336
CS(=O)(=O)c1cccc(CNc2nc(Nc3ccc4c(c3)CCC(=O)N4)ncc2C(F)(F)F)c1 [PF-573228]	0.0316
CC(C)NC[C@@H](C(=O)N1CCN(c2ncnc3c2[C@H](C)C[C@H]3O)CC1)c1ccc(Cl)cc1 [GDC-0068]	-0.251

Return reported ΔTm at 10 µM; argument: Cc1ccc(C(=O)Nc2ccc(CN3CCN(C)CC3)c(C(F)(F)F)c2)cc1C#Cc1cnc2cccnn12 [Ponatinib (AP24534)] -0.482

###

# tested target: ZmDRIK1-K217-P492 (Zea mays, UniProt C0P4K9)
# Construct: kinase domain, K217-P492
# experimental protocol: biochemical
# condition set: read-out: dTm B, sheet ZmDRIK1-K217-P492;; DSF, Boltzmann fit, 0.1% DMSO
Counter-ions that a name gives are not always drawn.
Define the label as 1 when ΔTm at 10 µM is strictly less than -0.9 °C and as 0 in all remaining cases.

Recorded results for 5 compounds are shown here.
compound	classification
O=C(Nc1ccc(-c2ccnc(Nc3ccc(N4CCOCC4)cc3)n2)cc1)C1CCCN1 (centres unmarked)	1
Cc1cnc(-c2cnc(NCCNc3ccc(C#N)cn3)nc2-c2ccc(Cl)cc2Cl)[nH]1 [CHIR-99021 (CT99021) HCl]	1
Cn1cc(-c2ccc3nnc(Sc4ccc5ncccc5c4)n3n2)cn1	0
O=C(c1cccc(Cl)c1F)N1CCN(Cc2cccc(Nc3nccs3)n2)CC1	0
O=c1[nH]c2ccc(Cl)cc2c(N[C@@H]2CN3CCC2CC3)c1-c1nc2ccccc2[nH]1	0

Here's an entry: N=C(N)NC(=N)NCCc1ccccc1 [Phenformin HCl] . Is its ΔTm at 10 µM below -0.9 °C? 1

Consider the compound O=C(NC(NC(=S)Nc1ccc(F)c([N+](=O)[O-])c1)C(Cl)(Cl)Cl)C(c1ccccc1)c1ccccc1 (centres unmarked) . Is its ΔTm at 10 µM strictly less than -0.9 °C? 1

is_below(ΔTm at 10 µM, -0.9 °C) for O=C(Nc1cccc(Cl)c1)Nc1ncc(CCNc2ncnc3ccsc23)s1 [SNS-314 Mesylate] ? 0

###

# tested target: ZmDRIK1 (DROUGHT RESPONSIVE INACTIVE KINASE 1), kinase domain (Zea mays, UniProt C0P4K9)
# Construct: gene ZEAMMB73_Zm00001d028770; ZmDRIK1-KD R187-S514 (kinase domain)
# Sequence (C0P4K9 187-514): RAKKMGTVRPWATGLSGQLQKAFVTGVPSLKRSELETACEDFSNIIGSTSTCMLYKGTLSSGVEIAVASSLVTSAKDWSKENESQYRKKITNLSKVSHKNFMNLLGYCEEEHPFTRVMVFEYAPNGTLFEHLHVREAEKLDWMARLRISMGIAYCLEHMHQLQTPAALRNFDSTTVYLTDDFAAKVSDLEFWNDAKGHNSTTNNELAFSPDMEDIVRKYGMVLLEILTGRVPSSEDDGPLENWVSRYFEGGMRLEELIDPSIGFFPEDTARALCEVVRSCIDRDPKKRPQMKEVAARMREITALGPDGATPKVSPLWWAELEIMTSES
# experimental protocol: biochemical
# condition set: read-out: dTm B, sheet ZmDRIK1-R187-S514;; DSF, Boltzmann fit, 0.1% DMSO
Structures can show the parent of a compound that is named as a salt.
Mark Condition met for reported ΔTm at 10 µM of -0.7 °C or greater; mark Condition not met for anything smaller.

Look over these answered cases.
compound	classification
COC[C@H]1OC(=O)c2coc3c2[C@@]1(C)C1=C(C3=O)[C@@H]2CCC(=O)[C@@]2(C)C[C@H]1OC(C)=O [Wortmannin]	Condition not met
Cc1c(CN2CCN(C(=O)[C@H](C)O)CC2)sc2c(N3CCOCC3)nc(-c3cnc(N)nc3)nc12 [GDC-0980 (RG7422)]	Condition not met
C=CC(=O)Nc1cccc(Nc2nc(Nc3ccc(Oc4ccnc(C(=O)NC)c4)cc3)ncc2F)c1 [CNX-774]	Condition not met
CC(C)(C)c1cc(C=C(C#N)C#N)cc(Br)c1O [AG-1024]	Condition met
CC(=O)c1c(C)c2cnc(Nc3ccc(N4CCNCC4)cn3)nc2n(C2CCCC2)c1=O [Palbociclib (PD-0332991) HCl]	Condition not met
CCN(CC)CCCC(C)Nc1nc(C)cc(Nc2ccc3nc(C)cc(N)c3c2)n1 (centres unmarked) [NSC 23766]	Condition met

Decide: is the reported value of ΔTm at 10 µM for COc1ccc(Cl)cc1NC(=O)Nc1cc(C)nc2ccccc12 [PQ 401] equal to or greater than -0.7 °C? Condition not met

Could you verify whether the entry COc1cc2ncnc(Oc3cccc(NC(=O)Nc4cc(C(C)(C)C(F)(F)F)on4)c3)c2cc1OC [CEP-32496] shows ΔTm at 10 µM of no less than -0.7 °C? Condition met

###

# tested target: ZmDRIK1-R187-P492 (Zea mays)
# Construct: kinase domain, R187-P492
# experimental protocol: biochemical
# condition set: read-out: dTm B, DSF, Boltzmann fit, 0.1% DMSO
measured quantity: ΔTm at 10 µM (°C)
Only the number, expressed in °C, is required.

input smiles	ΔTm at 10 µM (°C)
CCOc1ccn(-c2ccc(F)cc2)c(=O)c1C(=O)Nc1ccc(Oc2ccnc(N)c2Cl)c(F)c1	-0.218
CC(=O)Nc1cccc(-n2c(=O)n(C3CC3)c(=O)c3c(Nc4ccc(I)cc4F)n(C)c(=O)c(C)c32)c1	-0.327
O=C(c1ccc(Nc2nccc(-c3cc4ccccc4s3)n2)cc1)N1CCC(N2CCCC2)CC1	0.0892

Consider now this further molecule.
Can you look up the measured ΔTm at 10 µM of `Cc1cc(Nc2ncc(Cl)c(Nc3ccccc3S(=O)(=O)C(C)C)n2)c(OC(C)C)cc1C1CCNCC1` for me? -0.522

###

# tested target: ZmDRIK1-K217-S514 (Zea mays, UniProt C0P4K9)
# Construct: kinase domain, K217-S514
# Sequence (C0P4K9 1-514): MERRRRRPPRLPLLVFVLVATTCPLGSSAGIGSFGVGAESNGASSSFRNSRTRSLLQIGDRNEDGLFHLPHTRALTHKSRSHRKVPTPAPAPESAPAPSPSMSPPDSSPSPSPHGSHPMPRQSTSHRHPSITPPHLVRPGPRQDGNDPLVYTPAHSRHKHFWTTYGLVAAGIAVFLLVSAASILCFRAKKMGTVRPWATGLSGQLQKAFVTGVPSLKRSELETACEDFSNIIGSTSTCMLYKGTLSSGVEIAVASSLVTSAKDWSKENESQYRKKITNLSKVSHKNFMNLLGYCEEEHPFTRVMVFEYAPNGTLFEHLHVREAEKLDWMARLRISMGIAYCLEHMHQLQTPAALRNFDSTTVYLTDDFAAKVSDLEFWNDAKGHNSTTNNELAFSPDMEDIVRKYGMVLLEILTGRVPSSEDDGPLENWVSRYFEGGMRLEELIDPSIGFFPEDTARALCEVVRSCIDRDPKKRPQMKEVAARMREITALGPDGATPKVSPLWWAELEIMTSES
# experimental protocol: biochemical
# condition set: read-out: dTm B, sheet ZmDRIK1-K217-S514;; DSF, Boltzmann fit, 0.1% DMSO
measured quantity: ΔTm at 10 µM (°C)
Record the value in °C, omitting the unit from your answer.

Guide cases for ΔTm at 10 µM, answers given:
compound	tested target	ΔTm at 10 µM / °C
Cc1[nH]c(/C=C2\C(=O)Nc3ccc(S(=O)(=O)N(C)c4cccc(Cl)c4)cc32)c(C)c1C(=O)N1CCN(C)CC1	ZmDRIK1-K217-S514 (Zea mays, UniProt C0P4K9)	-0.605
O=C(NOCC(O)CO)c1cc(Br)c(F)c(F)c1Nc1ccc(I)cc1F (stereo not drawn)	ZmDRIK1-K217-S514 (Zea mays, UniProt C0P4K9)	-0.114
Cc1nc(Nc2n[nH]c3c2CN(C(=O)N[C@H](CN(C)C)c2ccccc2)C3(C)C)c2sccc2n1	ZmDRIK1-K217-S514 (Zea mays, UniProt C0P4K9)	-0.258
O=C(O)c1ccc(-c2c[nH]c3ncc(-c4ccccc4)cc23)cc1C1CCCC1	ZmDRIK1-K217-S514 (Zea mays, UniProt C0P4K9)	-0.353
Cc1ccc([N+](=O)[O-])cc1S(=O)(=O)N(C)/N=C/c1cnc2ccc(Br)cn12	ZmDRIK1-K217-S514 (Zea mays, UniProt C0P4K9)	-0.221
CNC(=O)c1nn(C)c2c1C(C)(C)Cc1cnc(Nc3ccc(N4CCN(C)CC4)cc3)nc1-2	ZmDRIK1-K217-S514 (Zea mays, UniProt C0P4K9)	-0.233
CN(C)c1ccc(-c2nc3ncc(Cl)c(N4CCN(CC(=O)Nc5nccs5)CC4)c3[nH]2)cc1	ZmDRIK1-K217-S514 (Zea mays, UniProt C0P4K9)	-0.39
CN1CCN(c2nc(C3=C(c4c[nH]c5ccccc45)C(=O)NC3=O)c3ccccc3n2)CC1	ZmDRIK1-K217-S514 (Zea mays, UniProt C0P4K9)	-0.412

Endpoint output: ΔTm at 10 µM of `CCNC(=O)Nc1ccc(-c2nc3c(c(N4CCOC[C@@H]4C)n2)CCN(C2COC2)C3)cc1` . Value? -0.392

Quick check: ΔTm at 10 µM of `COc1cc(CCc2cc(NC(=O)c3ccc(N4C[C@@H](C)N[C@@H](C)C4)cc3)n[nH]2)cc(OC)c1` ? 0.296

Quick one: ΔTm at 10 µM for `CCC(=O)Nc1cccc(Oc2nc(Nc3ccc(N4CCN(C)CC4)cc3OC)ncc2Cl)c1` ? -0.358

What measured ΔTm at 10 µM goes with `CC(C)(C)n1nc(-c2ccc(Cl)cc2)c2c(N)ncnc21` ? -0.458

Give its ΔTm at 10 µM value. Item: `COc1ccc(-c2ccc3c(N4CCOCC4)nc(N4C[C@@H](C)O[C@@H](C)C4)nc3n2)cc1CO` -0.302

// lookup ΔTm at 10 µM for `CN1CCN(c2ccc(OC(F)(F)F)c(Nc3ncc4c(n3)-c3c(c(C(N)=O)nn3CCO)CC4)c2)CC1` -0.517

Recorded ΔTm at 10 µM of `CCCCCCCCCCCCc1ccc(S(=O)(=O)Nc2nncs2)cc1` , please. -0.296

Requested read-out: ΔTm at 10 µM. Entry: `CCn1c2ccccc2c2cc(Nc3ccnc(NCCCN4CCOCC4)n3)ccc21` -0.29

# get_value(readout='ΔTm at 10 µM', item= `Clc1ccc(C2(c3ccc(-c4cn[nH]c4)cc3)CCNCC2)cc1` ) 0.339

Given CNC(=O)c1c(F)cccc1Nc1nc(Nc2cc3c(ccn3C(=O)CN(C)C)cc2OC)nc2[nH]ccc12 [GSK1838705A] , state its recorded ΔTm at 10 µM. -0.398

Which ΔTm at 10 µM is reported for this compound? `COc1cc2ncnc(Nc3ccc(F)c(Cl)c3)c2cc1NC(=O)/C=C/CN1CCCCC1` -0.1

What value of measured ΔTm at 10 µM is listed for `c1cncc(CN2CCC(n3ncc4c(N5CCOCC5)nc(-c5ccc6[nH]ccc6c5)nc43)CC2)c1` ? -0.731

Suppose we examine the compound `C#Cc1cccc(Nc2ncnc3cc(OC)c(OCCCCCCC(=O)NO)cc23)c1` ; what ΔTm at 10 µM value has been reported? -0.263

Fill in the blank: the reported ΔTm at 10 µM of `CC(C)(C#N)c1ccc(N2C(=O)OCc3cnc4ccc(-c5cnc6ccccc6c5)cc4c32)cc1` is ____. -0.552

Which ΔTm at 10 µM value belongs to `CN1CCN(c2cccc(Nc3nc4c(-c5ccc(S(C)(=O)=O)cc5)cccn4n3)c2)CC1` ? -0.33

Request the reported ΔTm at 10 µM associated with `COc1ccc(-c2ccc3c(N4CCOC[C@@H]4C)nc(N4CCOC[C@@H]4C)nc3n2)cc1CO` -0.119

Would you mind telling me what ΔTm at 10 µM value was observed for `Cc1cnc(NC(=O)Nc2cc(Br)c(C)cc2OC[C@@H]2CNCCO2)cn1` ? -0.525

Please give the measured ΔTm at 10 µM for this compound: `O=C(NCCO)c1cccc(-c2cc(Nc3ccc(OC(F)(F)F)cc3)ncn2)c1` 0.543

Request the reported ΔTm at 10 µM associated with `C[C@H](NC(=O)/C(C#N)=C/c1cccc(Br)n1)c1ccccc1` -2.48

I'd like to know its ΔTm at 10 µM. The compound in question is O=S(=O)(NCCNC/C=C/c1ccc(Br)cc1)c1cccc2cnccc12 [H 89 2HCl] -0.188

Just for reference, paper PMC7158045 is where these values come from.
